Below: a set of entries, each annotated with reported abundance fitness.
B1: Tyrosine-protein kinase Lck, residues 63 to 120; numbered along this chain, P06239 (parent)
chain: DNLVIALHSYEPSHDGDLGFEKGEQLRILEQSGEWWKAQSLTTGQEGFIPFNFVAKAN

variants of: B1; assay: abundance fitness (aPCA) (normalised: wild type 0, dead -1); higher = more abundant; growth selection in yeast, the domain comes from the species named; conditions: Homo sapiens
// response body must contain only the number

Example entries begin here.
VARIANT NOTATION | abundance fitness
I28Y | -0.459
S40K | -0.076
Q45T | -0.146
W36C | -0.046
D17E | 0.063

Q: For the variant L41D , give its measured abundance fitness value.
A: -0.666

Q: For the variant L18N , give its measured abundance fitness value.
A: -0.722

Q: For the variant G47Q , give its measured abundance fitness value.
A: -0.986

Q: For the variant E34L , give its measured abundance fitness value.
A: -0.225

Q: For the variant K56T , give its measured abundance fitness value.
A: -0.095

Q: For the variant S32D , give its measured abundance fitness value.
A: -0.07

Q: For the variant L41G , give its measured abundance fitness value.
A: -0.721

Q: For the variant Y10T , give its measured abundance fitness value.
A: -0.604

meta.source: the Human Domainome abundance scans (Beltran et al. 2025)
